B1: library; numbered along this chain (parent)
chain: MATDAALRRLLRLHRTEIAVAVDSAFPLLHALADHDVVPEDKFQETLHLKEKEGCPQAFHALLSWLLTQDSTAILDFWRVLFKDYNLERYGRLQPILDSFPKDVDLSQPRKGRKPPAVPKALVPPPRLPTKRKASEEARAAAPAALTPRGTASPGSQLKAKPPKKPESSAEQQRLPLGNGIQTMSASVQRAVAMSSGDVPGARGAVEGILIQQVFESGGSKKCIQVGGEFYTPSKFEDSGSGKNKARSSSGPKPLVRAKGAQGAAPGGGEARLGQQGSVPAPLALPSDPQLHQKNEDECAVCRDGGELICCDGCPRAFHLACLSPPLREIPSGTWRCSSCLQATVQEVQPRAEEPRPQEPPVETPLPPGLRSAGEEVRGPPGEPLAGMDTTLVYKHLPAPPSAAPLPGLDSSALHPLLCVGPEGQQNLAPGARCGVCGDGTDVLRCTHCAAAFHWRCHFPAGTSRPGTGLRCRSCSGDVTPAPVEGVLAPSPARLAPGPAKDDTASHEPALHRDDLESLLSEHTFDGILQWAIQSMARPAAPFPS

Variants of: B1
Assay: AIRE transcriptional activation functional score (insulin promoter-GFP; nonsense median 0, synonymous median 1) (normalised score); higher = higher AIRE activity (more reporter activation)
Conditions: with insulin promoter-GFP reporter in HEK293
Quantity Name: AIRE transcriptional activation functional score
Give a plain numeric answer without units written out.

The reported AIRE transcriptional activation functional score of the variant P430S was 0.992
